Each recorded value in this set is attributed to patent US12077566B2.

Attribute: Mice weight after experiment
# Tested on: human liver cancer Hep G2 cells
# condition_summary: mouse, in vivo
Form entry: value (g) — number only.

The examples below pair each entry with its known result.
rLZ-8 (K16A/S18A/K41A/D45A): alanine mutant of rLZ-8 at K16, S18, K41 and D45 (protein) MSDTALIFRLAWDVKALAFDYTPNWGRGNPNNFIDTVTFPAVLTAKAYTYRVAVSGRNLGVKPSYAVESDGSQKVNFLEYNSGYGIADTNTIQVFVVDPDTNNDFIIAQWN ... 17.3
rLZ-8 (K46E): rLZ-8 mutant K46E (protein) MSDTALIFRLAWDVKKLSFDYTPNWGRGNPNNFIDTVTFPKVLTDEAYTYRVAVSGRNLGVKPSYAVESDGSQKVNFLEYNSGYGIADTNTIQVFVVDPDTNNDFIIAQWN ... 19.4
rLZ-8 (R9A): alanine mutant of rLZ-8 at R9 (protein) MSDTALIFALAWDVKKLSFDYTPNWGRGNPNNFIDTVTFPKVLTDKAYTYRVAVSGRNLGVKPSYAVESDGSQKVNFLEYNSGYGIADTNTIQVFVVDPDTNNDFIIAQWN ... 19.3

Find the recorded Mice weight after experiment belonging to rLZ-8 (K46E/K74E): rLZ-8 mutant K46E and K74E (protein) MSDTALIFRLAWDVKKLSFDYTPNWGRGNPNNFIDTVTFPKVLTDEAYTYRVAVSGRNLGVKPSYAVESDGSQEVNFLEYNSGYGIADTNTIQVFVVDPDTNNDFIIAQWN and report it.
20.1

Could you tell me which Mice weight after experiment is on file for rLZ-8 (L17K): rLZ-8 mutant after surface potential optimization, L17K (protein) MSDTALIFRLAWDVKKKSFDYTPNWGRGNPNNFIDTVTFPKVLTDKAYTYRVAVSGRNLGVKPSYAVESDGSQKVNFLEYNSGYGIADTNTIQVFVVDPDTNNDFIIAQWN ?
20.1

Fill blank: measured Mice weight after experiment of the molecule rLZ-8 (D70K): rLZ-8 mutant after surface potential optimization, D70K (protein) MSDTALIFRLAWDVKKLSFDYTPNWGRGNPNNFIDTVTFPKVLTDKAYTYRVAVSGRNLGVKPSYAVESKGSQKVNFLEYNSGYGIADTNTIQVFVVDPDTNNDFIIAQWN is ____.
20.7

Field request: Mice weight after experiment | item: rLZ-8 (D20H/D70K): rLZ-8 mutant after surface potential optimization, D20H and D70K (protein) MSDTALIFRLAWDVKKLSFHYTPNWGRGNPNNFIDTVTFPKVLTDKAYTYRVAVSGRNLGVKPSYAVESKGSQKVNFLEYNSGYGIADTNTIQVFVVDPDTNNDFIIAQWN
20.1

Which Mice weight after experiment value is on record for rLZ-8 (D45A): alanine mutant of rLZ-8 at D45 (protein) MSDTALIFRLAWDVKKLSFDYTPNWGRGNPNNFIDTVTFPKVLTAKAYTYRVAVSGRNLGVKPSYAVESDGSQKVNFLEYNSGYGIADTNTIQVFVVDPDTNNDFIIAQWN ?
17.4

Which Mice weight after experiment reading was recorded for the molecule rLZ-8 (K41D/K46E/K74E): rLZ-8 mutant K41D, K46E and K74E (protein) MSDTALIFRLAWDVKKLSFDYTPNWGRGNPNNFIDTVTFPDVLTDEAYTYRVAVSGRNLGVKPSYAVESDGSQEVNFLEYNSGYGIADTNTIQVFVVDPDTNNDFIIAQWN ?
20.0

Please look up its Mice weight after experiment: rLZ-8 (L17K/D70K): rLZ-8 mutant after surface potential optimization, L17K and D70K (protein) MSDTALIFRLAWDVKKKSFDYTPNWGRGNPNNFIDTVTFPKVLTDKAYTYRVAVSGRNLGVKPSYAVESKGSQKVNFLEYNSGYGIADTNTIQVFVVDPDTNNDFIIAQWN
21.0

Dear colleague, I am looking for the recorded Mice weight after experiment of the following molecule: rLZ-8 (K16A/K41A): alanine mutant of rLZ-8 at K16 and K41 (protein) MSDTALIFRLAWDVKALSFDYTPNWGRGNPNNFIDTVTFPAVLTDKAYTYRVAVSGRNLGVKPSYAVESDGSQKVNFLEYNSGYGIADTNTIQVFVVDPDTNNDFIIAQWN
17.2

Entry rLZ-8 (D20H): rLZ-8 mutant after surface potential optimization, D20H (protein) MSDTALIFRLAWDVKKLSFHYTPNWGRGNPNNFIDTVTFPKVLTDKAYTYRVAVSGRNLGVKPSYAVESDGSQKVNFLEYNSGYGIADTNTIQVFVVDPDTNNDFIIAQWN : reported Mice weight after experiment = ?
19.7

Find the recorded Mice weight after experiment belonging to rLZ-8 (S18A): alanine mutant of rLZ-8 at S18 (protein) MSDTALIFRLAWDVKKLAFDYTPNWGRGNPNNFIDTVTFPKVLTDKAYTYRVAVSGRNLGVKPSYAVESDGSQKVNFLEYNSGYGIADTNTIQVFVVDPDTNNDFIIAQWN and report it.
17.6
